Test system: human nose
Experiment description: Standard human olfactory power / odor threshold
Format: in vivo
Assay conditions: Table 4; minimum detection concentration
Classify: satisfied when Odorant Threshold is strictly less than 0.02 ppm; not satisfied when Odorant Threshold is not.

Compound | Test system | Group label
CC[SeH] [ethyl selenol] | human nose | satisfied

Query: Criterion: Odorant Threshold strictly below 0.02 ppm. Is it met by CCS [ethyl mercaptan] ?
Response: satisfied

Query: Okay, and CCCl [ethylchloride] ?
Response: not satisfied

Query: # iterate: c1ccncc1 [pyridine]
Response: not satisfied

Query: And for CCCN [propylamine, propyl amine] ?
Response: satisfied

Query: Can you handle CNC [dimethylamine, dimethyl amine] next?
Response: not satisfied

Query: Another compound to check: CCO [ethanol]
Response: not satisfied

Query: Another compound: CN [methylamine, methyl amine]
Response: satisfied
